Tested on: filter-sterile supernatant of Rhodanobacter R179 (secreted peptidase(s))
method_description: Peptide quantification by mass spectrometry after incubation in cell-free supernatant of Rhodanobacter R179
Format: in vitro ADME
study_conditions: axenic XVM2 medium control, incubation 1h, MS1 precursor area, replicate 2
Where no end group is shown, it is not given here.
Measured Log10(total_area_MS1) of individual entries

{"columns": ["substance", "Log10(total_area_MS1)"],
 "data": [
  ["QRLSTGSRINSAKDDAAGLQIA [flg22]", 8.543],
  ["ATKVKAKQRGKEKVSSGRPGQHN [AtPep1]", 10.4615],
  ["D-Y(SO3H)-GDPSANPKHDPGV-Hyp-Hyp-S [PSY1, root-growth-promoting sulfated PSY1 peptide]", 10.3906],
  ["Ac-SKEKFERTKPHVNVGTIG [elf18]", 10.552]
]}

---

Measured Log10(total_area_MS1) by item
Test system: filter-sterile supernatant of Rhodanobacter R179 (secreted peptidase(s))
method_description: Peptide quantification by mass spectrometry after incubation in cell-free supernatant of Rhodanobacter R179
Assay type: in vitro ADME
study_conditions: R179 wt supernatant, XVM2 medium, incubation 1h, MS1 precursor area, replicate 3
Where no end group is shown, it is not given here.

{"columns": ["substance", "measured_on", "Log10(total_area_MS1)"],
 "data": [
  ["D-Y(SO3H)-GDPSANPKHDPGV-Hyp-Hyp-S [PSY1, root-growth-promoting sulfated PSY1 peptide]", "filter-sterile supernatant of Rhodanobacter R179 (secreted peptidase(s))", 9.627],
  ["Ac-SKEKFERTKPHVNVGTIG [elf18]", "filter-sterile supernatant of Rhodanobacter R179 (secreted peptidase(s))", 0],
  ["QRLSTGSRINSAKDDAAGLQIA [flg22]", "filter-sterile supernatant of Rhodanobacter R179 (secreted peptidase(s))", 0],
  ["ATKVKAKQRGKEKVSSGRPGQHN [AtPep1]", "filter-sterile supernatant of Rhodanobacter R179 (secreted peptidase(s))", 6.66]
]}

---

# percent_rel_axenic listing for each entry below
Tested on: filter-sterile supernatant of Rhodanobacter R179 (secreted peptidase(s))
method_description: Peptide quantification by mass spectrometry after incubation in cell-free supernatant of Rhodanobacter R179
Type: in vitro ADME
study_conditions: R179 wt supernatant, XVM2 medium, incubation 1h, peptide relative to axenic, replicate 2
Where no end group is shown, it is not given here.

{"columns": ["substance", "percent_rel_axenic (%)"],
 "data": [
  ["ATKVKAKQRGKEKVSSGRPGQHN [AtPep1]", 0.0026],
  ["Ac-SKEKFERTKPHVNVGTIG [elf18]", 0],
  ["QRLSTGSRINSAKDDAAGLQIA [flg22]", 0],
  ["D-Y(SO3H)-GDPSANPKHDPGV-Hyp-Hyp-S [PSY1, root-growth-promoting sulfated PSY1 peptide]", 18.4872]
]}

---

Test system: filter-sterile supernatant of Rhodanobacter R179 (secreted peptidase(s))
method_description: Peptide quantification by mass spectrometry after incubation in cell-free supernatant of Rhodanobacter R179
Type: in vitro ADME
study_conditions: R179 dssAB mutant supernatant, XVM2 medium, incubation 1h, MS1 precursor area, replicate 2
Where no end group is shown, it is not given here.

{"columns": ["substance", "measured_on", "Log10(total_area_MS1)"],
 "data": [
  ["Ac-SKEKFERTKPHVNVGTIG [elf18]", "filter-sterile supernatant of Rhodanobacter R179 (secreted peptidase(s))", 0],
  ["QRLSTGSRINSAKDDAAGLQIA [flg22]", "filter-sterile supernatant of Rhodanobacter R179 (secreted peptidase(s))", 0],
  ["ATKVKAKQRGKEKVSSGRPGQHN [AtPep1]", "filter-sterile supernatant of Rhodanobacter R179 (secreted peptidase(s))", 6.556],
  ["D-Y(SO3H)-GDPSANPKHDPGV-Hyp-Hyp-S [PSY1, root-growth-promoting sulfated PSY1 peptide]", "filter-sterile supernatant of Rhodanobacter R179 (secreted peptidase(s))", 9.68]
]}

---

System: filter-sterile supernatant of Rhodanobacter R179 (secreted peptidase(s))
method_description: Peptide quantification by mass spectrometry after incubation in cell-free supernatant of Rhodanobacter R179
Type: in vitro ADME
study_conditions: R179 dssAB mutant supernatant, XVM2 medium, incubation 1h, peptide relative to axenic, replicate 3
Where no end group is shown, it is not given here.
quantity_name: percent_rel_axenic

{"columns": ["substance", "endpoint_result"],
 "data": [
  ["D-Y(SO3H)-GDPSANPKHDPGV-Hyp-Hyp-S [PSY1, root-growth-promoting sulfated PSY1 peptide]", "11.4643%"],
  ["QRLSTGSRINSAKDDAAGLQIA [flg22]", "0%"],
  ["Ac-SKEKFERTKPHVNVGTIG [elf18]", "0%"],
  ["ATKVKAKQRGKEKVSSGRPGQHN [AtPep1]", "0.0006%"]
]}

---

Reported Log10(total_area_MS1) values for the following substances.
Tested on: filter-sterile supernatant of Rhodanobacter R179 (secreted peptidase(s))
method_description: Peptide quantification by mass spectrometry after incubation in cell-free supernatant of Rhodanobacter R179
Format: in vitro ADME
study_conditions: R179 dssAB mutant supernatant, XVM2 medium, incubation 1h, MS1 precursor area, replicate 1
Where no end group is shown, it is not given here.

{"columns": ["substance", "measured_on", "Log10(total_area_MS1)"],
 "data": [
  ["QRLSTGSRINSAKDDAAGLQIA [flg22]", "filter-sterile supernatant of Rhodanobacter R179 (secreted peptidase(s))", 0],
  ["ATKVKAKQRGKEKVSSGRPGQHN [AtPep1]", "filter-sterile supernatant of Rhodanobacter R179 (secreted peptidase(s))", 6.423],
  ["Ac-SKEKFERTKPHVNVGTIG [elf18]", "filter-sterile supernatant of Rhodanobacter R179 (secreted peptidase(s))", 0],
  ["D-Y(SO3H)-GDPSANPKHDPGV-Hyp-Hyp-S [PSY1, root-growth-promoting sulfated PSY1 peptide]", "filter-sterile supernatant of Rhodanobacter R179 (secreted peptidase(s))", 9.656]
]}

---

System: filter-sterile supernatant of Rhodanobacter R179 (secreted peptidase(s))
method_description: Peptide quantification by mass spectrometry after incubation in cell-free supernatant of Rhodanobacter R179
Format: in vitro ADME
study_conditions: 1 µM peptide, 1 h, filter-sterile supernatant of wild-type R179 cultivated in XVM2 minimal medium (OD600 = 0.4), light chamber, LC-MS MS1 peak area, n = 3 culture supernatants
Description: Elicitors were also supplemented into the medium prior to solidification at a final concentration of 1 µM. The flg22 ([…]) and AtPep1 ([…]) peptides were synthesized by EZbiolab. elf18^R179 (Ac-[…]) and elf18 (Ac-[…]) were synthesized by GenScript and EZbiolab, respectively. […] The samples were analysed using an EASY-nLC 1200 (Thermo Fisher) coupled to a QExactive Plus mass spectrometer (Thermo Fisher). […]
Where no end group is shown, it is not given here.
quantity_name: peptide detected by mass spectrometry after incubation in supernatant of wild-type R179

{"columns": ["substance", "endpoint_result"],
 "data": [
  ["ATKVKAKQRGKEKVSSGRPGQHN [AtPep1]", "depleted"],
  ["Ac-SKEKFERTKPHVNVGTIG [elf18]", "depleted"]
]}

---

System: filter-sterile supernatant of Rhodanobacter R179 (secreted peptidase(s))
method_description: Peptide quantification by mass spectrometry after incubation in cell-free supernatant of Rhodanobacter R179
Assay type: in vitro ADME
study_conditions: R179 dssAB mutant supernatant, XVM2 medium, incubation 1h, peptide relative to axenic, replicate 2
Where no end group is shown, it is not given here.
Reported percent_rel_axenic values follow for various substances
quantity_name: percent_rel_axenic (%)

{"columns": ["substance", "endpoint_result"],
 "data": [
  ["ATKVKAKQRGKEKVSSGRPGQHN [AtPep1]", 0.0129],
  ["D-Y(SO3H)-GDPSANPKHDPGV-Hyp-Hyp-S [PSY1, root-growth-promoting sulfated PSY1 peptide]", 17.7896],
  ["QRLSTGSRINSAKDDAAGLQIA [flg22]", 0],
  ["Ac-SKEKFERTKPHVNVGTIG [elf18]", 0]
]}

---

Test system: filter-sterile supernatant of Rhodanobacter R179 (secreted peptidase(s))
method_description: Peptide quantification by mass spectrometry after incubation in cell-free supernatant of Rhodanobacter R179
Format: in vitro ADME
study_conditions: axenic XVM2 medium control, incubation 1h, MS1 precursor area, replicate 3
Where no end group is shown, it is not given here.
quantity_name: Log10(total_area_MS1)

{"columns": ["substance", "endpoint_result"],
 "data": [
  ["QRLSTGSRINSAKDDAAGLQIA [flg22]", 8.745],
  ["Ac-SKEKFERTKPHVNVGTIG [elf18]", 10.527],
  ["D-Y(SO3H)-GDPSANPKHDPGV-Hyp-Hyp-S [PSY1, root-growth-promoting sulfated PSY1 peptide]", 10.2645],
  ["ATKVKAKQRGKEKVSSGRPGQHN [AtPep1]", 10.4458]
]}

Data provenance is paper PMC11928319.
